Data credit: patent US9688764B2

Task for the reader: assign each of the following molecules its reported pKd.
# tgt: mfPRLR.mmh (monomeric macaca fascicularis PRLR)
# Sequence (as listed by the source): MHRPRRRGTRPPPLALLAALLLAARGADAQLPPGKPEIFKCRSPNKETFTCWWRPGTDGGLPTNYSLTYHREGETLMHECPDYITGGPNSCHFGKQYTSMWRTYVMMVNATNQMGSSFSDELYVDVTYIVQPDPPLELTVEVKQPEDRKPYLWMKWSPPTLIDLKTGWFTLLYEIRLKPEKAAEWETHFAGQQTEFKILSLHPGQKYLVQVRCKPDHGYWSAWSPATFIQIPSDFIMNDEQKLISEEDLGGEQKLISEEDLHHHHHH
# assay.notes: Surface plasmon resonance (Biacore T200), mAb-capture format
# Assay type: binding
# experimental.context: 25° C., antibody-capture format, analyte mfPRLR.mmh
# Experimental: Antibodies, expressed as human IgG1 Fc “[…]” designations), were captured onto an anti-human Fc sensor surface (mAb-capture format), and soluble monomeric (hPRLR.mmh; SEQ ID NO:401, or macaca fascicularis (mf) PRLR.mmh; SEQ ID NO:403) or dimeric (hPRLR.mFc; SEQ ID NO:402) PRLR protein was injected over the sensor surface. Measurements were conducted on a T200 Biacore instrument. […]
Answers are plain numbers, as −log10 of the molar value.

For orientation, consider the following solved cases.
So what does the record say about pKd for H1H6966N: human IgG1 Fc form of H2M6966N; anti-PRLR; HCVR/LCVR SEQ ID NOs 338/346 (antibody, V domains shown, human IgG1 Fc) VH: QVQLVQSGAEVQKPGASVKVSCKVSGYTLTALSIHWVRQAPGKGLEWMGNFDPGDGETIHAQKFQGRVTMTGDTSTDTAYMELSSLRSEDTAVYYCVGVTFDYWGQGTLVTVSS VL: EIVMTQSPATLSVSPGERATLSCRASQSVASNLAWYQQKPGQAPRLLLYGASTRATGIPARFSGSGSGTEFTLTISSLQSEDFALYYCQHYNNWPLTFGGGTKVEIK ?
9.38

So what does the record say about pKd for H1H6781P: anti-PRLR antibody, human IgG1 Fc; HCVR/LCVR SEQ ID NOs 50/58 (antibody, V domains shown, human IgG1 Fc) VH: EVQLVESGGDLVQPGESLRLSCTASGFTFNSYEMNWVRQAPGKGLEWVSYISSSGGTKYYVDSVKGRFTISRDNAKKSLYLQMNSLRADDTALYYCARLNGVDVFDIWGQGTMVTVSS VL: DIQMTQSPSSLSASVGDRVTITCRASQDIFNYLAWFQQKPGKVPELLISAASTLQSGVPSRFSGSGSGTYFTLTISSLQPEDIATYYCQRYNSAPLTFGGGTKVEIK ?
9.01

So what does the record say about pKd for H1H6800P: anti-PRLR antibody, human IgG1 Fc; HCVR/LCVR SEQ ID NOs 194/202 (antibody, V domains shown, human IgG1 Fc) VH: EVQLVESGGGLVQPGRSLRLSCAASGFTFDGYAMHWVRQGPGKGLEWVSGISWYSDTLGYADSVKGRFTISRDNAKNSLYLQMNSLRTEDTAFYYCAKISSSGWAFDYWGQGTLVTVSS VL: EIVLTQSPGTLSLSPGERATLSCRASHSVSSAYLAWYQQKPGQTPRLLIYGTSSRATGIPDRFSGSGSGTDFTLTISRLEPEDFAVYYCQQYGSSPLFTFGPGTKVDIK ?
8.90

// next item, pKd requested
So what does the record say about pKd for H1H6801P: anti-PRLR antibody, human IgG1 Fc; HCVR/LCVR SEQ ID NOs 210/218 (antibody, V domains shown, human IgG1 Fc) VH: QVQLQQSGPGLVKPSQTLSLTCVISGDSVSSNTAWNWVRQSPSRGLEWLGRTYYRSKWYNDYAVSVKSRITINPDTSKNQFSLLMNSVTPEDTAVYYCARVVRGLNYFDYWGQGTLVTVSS VL: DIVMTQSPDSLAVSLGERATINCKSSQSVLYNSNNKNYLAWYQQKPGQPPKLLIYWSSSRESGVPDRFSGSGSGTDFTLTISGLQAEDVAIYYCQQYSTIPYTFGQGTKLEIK ?
8.73
